Test system: A-431
Protocol Description: Cytotoxicity against human A431 cells
Format: functional
Cond: read-out: ED50 (the source's name)
Property Name: EC50 (mg/L)
Lab book: enter the figure in mg/L, no units written.

Worked cases, EC50 given:
COC1=C(C)C(O)=C(C(=O)/C=C/c2ccccc2)C(=O)C1(C)C    5.1
COC1=C(C)C(=O)/C(=C(O)/C=C/c2nccs2)C(=O)C1(C)C    6
CCc1ccc(/C=C/C(O)=C2/C(=O)C(C)=C(OC)C(C)(C)C2=O)cc1    12
CC1=C(O)C(C)(C)C(=O)C(C(=O)/C=C/c2ccccc2)=C1O    14

Kindly consider the entry below.
Report value: EC50, system: A-431, compound: "COC1=C(C)C(=O)/C(=C(O)/C=C/c2ccc(O)cc2)C(=O)C1(C)C"
14.9

###

System: A-431
Protocol Description: Cytotoxicity against human A431 cells
Type: functional
Cond: read-out: ED50 (the source's name)
Property Name: EC50 (µg/mL)
Lab book: enter the figure in µg/mL, no units written.

COC1=C(C)C(=O)/C(=C(O)/C=C/c2cccc3ccccc23)C(=O)C1(C)C    4.1
CCCC1=C(OC)C(CCC)(CCC)C(=O)/C(=C(O)\C=C\c2ccccc2)C1=O    1.9
CCCC1=C(OC)C(CCC)(CCC)C(=O)/C(=C(O)\C=C\c2ccc(Br)cc2)C1=O    1.2

Kindly consider the entry below.
Please indicate EC50 recorded for "COC1=C(C)C(=O)/C(=C(O)/C=C/c2cc(C)cc(C)c2)C(=O)C1(C)C"
4

###

System: 1A9
Protocol Description: Cytotoxicity against human 1A9 cells
Type: functional
Cond: read-out: ED50 (the source's name)
Each entry below carries its recorded EC50.
Lab book: enter the figure in µg/mL, no units written.

Worked cases, EC50 given:
CCC1=C(OC)C(CC)(CC)C(=O)C(C(=O)/C=C/c2ccc(CC)cc2)=C1O    3.8
COC1=C(C)C(O)=C(C(=O)/C=C/c2ccccc2)C(=O)C1(C)C    3.5

Please indicate EC50 recorded for "CCC1=C(OC)C(CC)(CC)C(=O)C(C(=O)/C=C/c2ccccc2)=C1O"
2.1

Please indicate EC50 recorded for "COC1=C(C)C(=O)/C(=C(O)/C=C/c2c(C)cc(C)cc2C)C(=O)C1(C)C"
6.2

###

Tested on: A-431
Protocol Description: Cytotoxicity against human A431 cells
Format: functional
Cond: read-out: ED50 (the source's name)
Property Name: EC50 (µg/mL)
Lab book: enter the figure in µg/mL, no units written.

Worked cases, EC50 given:
CCC1=C(OC)C(CC)(CC)C(=O)C(C(=O)/C=C/c2ccccc2)=C1O    5.4
COC1=C(C)C(=O)/C(=C(O)/C=C/c2ccco2)C(=O)C1(C)C    14.7
COC1=C(C)C(=O)/C(=C(O)/C=C/c2c(C)cccc2C)C(=O)C1(C)C    10.1
CCC1=C(OC)C(CC)(CC)C(=O)C(C(=O)/C=C/c2ccc(C)cc2)=C1O    10.3
COC1=C(C)C(=O)/C(=C(O)/C=C/c2ccc(Br)cc2)C(=O)C1(C)C    9
COC1=C(C)C(=O)/C(=C(O)/C=C/c2cccc(OC)c2)C(=O)C1(C)C    4.5

Please indicate EC50 recorded for "CCC1=C(OC)C(C)(C)C(=O)C(C(=O)/C=C/c2ccccc2)=C1O"
13.8

Please indicate EC50 recorded for "COC1=C(C)C(=O)/C(=C(O)/C=C/c2cccs2)C(=O)C1(C)C"
10.8

Please indicate EC50 recorded for "CCC1=C(OC)C(CC)(CC)C(=O)C(C(=O)/C=C/c2ccc(CC)cc2)=C1O"
9.8

Please indicate EC50 recorded for "COC1=CC(O)=C(C(=O)/C=C/c2ccccc2)C(=O)C1(C)C"
7

Please indicate EC50 recorded for "CC1(C)C(=O)C(C(=O)/C=C/c2ccccc2)=C(O)C(C)(C)C1=O"
10.5

Please indicate EC50 recorded for "COC1=C(C)C(=O)/C(=C(O)/C=C/c2ccccc2OC)C(=O)C1(C)C"
6.6

Please indicate EC50 recorded for "COC1=C(C)C(=O)/C(=C(O)/C=C/c2ccc(OC)cc2)C(=O)C1(C)C"
9.2

Please indicate EC50 recorded for "C=Cc1ccccc1/C=C/C(O)=C1/C(=O)C(C)=C(OC)C(C)(C)C1=O"
2.6

Please indicate EC50 recorded for "COC1=C(C)C(=O)/C(=C(O)/C=C/c2ccc(F)cc2)C(=O)C1(C)C"
4.1

Please indicate EC50 recorded for "COC1=C(C)C(=O)/C(=C(O)/C=C/c2ccc(C)cc2)C(=O)C1(C)C"
5.1

Please indicate EC50 recorded for "COC1=C(C)C(=O)/C(=C(O)/C=C/c2c(C)cc(C)cc2C)C(=O)C1(C)C"
20

###

System: 1A9
Protocol Description: Cytotoxicity against human 1A9 cells
Type: functional
Cond: read-out: ED50 (the source's name)
Each entry below carries its recorded EC50.
Lab book: enter the figure in µg/mL, no units written.

Worked cases, EC50 given:
CC1(C)C(=O)C(C(=O)/C=C/c2ccccc2)=C(O)C(C)(C)C1=O    4.6
COC1=C(C)C(=O)/C(=C(O)/C=C/c2ccc(OC)cc2)C(=O)C1(C)C    2.8
CCC1=C(OC)C(C)(C)C(=O)C(C(=O)/C=C/c2ccccc2)=C1O    3.8
CCc1ccc(/C=C/C(O)=C2/C(=O)C(C)=C(OC)C(C)(C)C2=O)cc1    5.3

Please indicate EC50 recorded for "CC1=C(O)C(C)(C)C(=O)C(C(=O)/C=C/c2ccccc2)=C1O"
8

Please indicate EC50 recorded for "COC1=C(C)C(=O)/C(=C(O)/C=C/c2ccc(Br)cc2)C(=O)C1(C)C"
1.1

###

Test system: 1A9
Protocol Description: Cytotoxicity against human 1A9 cells
Assay type: functional
Cond: read-out: ED50 (the source's name)
Could you please mark criterion met for values of EC50 below 3 µg/mL and criterion not met for values at or above it?

COC1=CC(O)=C(C(=O)/C=C/c2ccccc2)C(=O)C1(C)C    criterion not met
COC1=C(C)C(=O)/C(=C(O)/C=C/c2cccs2)C(=O)C1(C)C    criterion not met
COC1=C(C)C(=O)/C(=C(O)/C=C/c2cccc(OC)c2)C(=O)C1(C)C    criterion met
COC1=C(C)C(=O)/C(=C(O)/C=C/c2ccco2)C(=O)C1(C)C    criterion not met
CCCC1=C(OC)C(CCC)(CCC)C(=O)/C(=C(O)\C=C\c2ccccc2)C1=O    criterion met
CCCC1=C(OC)C(CCC)(CCC)C(=O)/C(=C(O)\C=C\c2ccc(Br)cc2)C1=O    criterion met
CCC1=C(OC)C(CC)(CC)C(=O)C(C(=O)/C=C/c2ccc(C)cc2)=C1O    criterion not met
COC1=C(C)C(=O)/C(=C(O)/C=C/c2nccs2)C(=O)C1(C)C    criterion not met
COC1=C(C)C(=O)/C(=C(O)/C=C/c2ccc(O)cc2)C(=O)C1(C)C    criterion met

Check if EC50 falls below 3 µg/mL for "COC1=C(C)C(=O)/C(=C(O)/C=C/c2ccccc2OC)C(=O)C1(C)C" .
criterion met
